Source of measurements: paper PMC11676982

subject.of.test: CYP2A6 (Homo sapiens, UniProt P11509)
Sequence (P11509 1-494): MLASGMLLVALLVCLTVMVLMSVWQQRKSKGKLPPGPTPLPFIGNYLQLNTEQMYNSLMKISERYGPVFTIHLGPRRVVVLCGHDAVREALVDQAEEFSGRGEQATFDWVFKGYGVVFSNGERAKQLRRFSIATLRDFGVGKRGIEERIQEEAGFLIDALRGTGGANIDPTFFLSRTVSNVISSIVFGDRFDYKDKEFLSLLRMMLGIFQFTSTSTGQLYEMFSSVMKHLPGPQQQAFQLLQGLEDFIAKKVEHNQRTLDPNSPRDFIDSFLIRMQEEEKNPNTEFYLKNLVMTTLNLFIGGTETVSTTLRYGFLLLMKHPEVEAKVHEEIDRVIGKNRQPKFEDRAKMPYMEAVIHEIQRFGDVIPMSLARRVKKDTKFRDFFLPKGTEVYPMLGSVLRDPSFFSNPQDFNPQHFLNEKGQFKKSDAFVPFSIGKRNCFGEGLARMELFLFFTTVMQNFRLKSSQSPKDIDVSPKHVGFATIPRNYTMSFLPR
measurement.notes: Determination of CYP inhibition mode and Ki in pooled HLMs, CYP2A6-mediated coumarin 7-hydroxylation
run.conditions: read-out: Ki, CYP2A6, mixed inhibition model (selected best fit); pooled HLMs; coumarin 1.25–10 μM; 95% CI in parentheses
measurement.name: pKi
Remember, pKi is on a log scale: it is -log10 of the molar concentration.

Problem: Please report the recorded pKi for C=C(C)C1CC=C(C=O)CC1 (single isomer, unassigned; (-)) [(−)-PAH, (−)-Perillaldehyde] .
Solution: 5.76

---

subject.of.test: CYP2B6 (Homo sapiens, UniProt P20813)
measurement.notes: Determination of CYP inhibition mode and Ki in pooled HLMs, CYP2B6-mediated bupropion hydroxylation
run.conditions: read-out: Ki, CYP2B6, mixed inhibition model (selected best fit); pooled HLMs; bupropion 12.5–100 μM; 95% CI in parentheses
measurement.name: pKi
Remember, pKi is on a log scale: it is -log10 of the molar concentration.

Problem: Please report the recorded pKi for C=C(C)C1CC=C(C=O)CC1 (single isomer, unassigned; (-)) [(−)-PAH, (−)-Perillaldehyde] .
Solution: 5.52

---

subject.of.test: CYP2A6 (Homo sapiens)
Sequence (P11509 1-494): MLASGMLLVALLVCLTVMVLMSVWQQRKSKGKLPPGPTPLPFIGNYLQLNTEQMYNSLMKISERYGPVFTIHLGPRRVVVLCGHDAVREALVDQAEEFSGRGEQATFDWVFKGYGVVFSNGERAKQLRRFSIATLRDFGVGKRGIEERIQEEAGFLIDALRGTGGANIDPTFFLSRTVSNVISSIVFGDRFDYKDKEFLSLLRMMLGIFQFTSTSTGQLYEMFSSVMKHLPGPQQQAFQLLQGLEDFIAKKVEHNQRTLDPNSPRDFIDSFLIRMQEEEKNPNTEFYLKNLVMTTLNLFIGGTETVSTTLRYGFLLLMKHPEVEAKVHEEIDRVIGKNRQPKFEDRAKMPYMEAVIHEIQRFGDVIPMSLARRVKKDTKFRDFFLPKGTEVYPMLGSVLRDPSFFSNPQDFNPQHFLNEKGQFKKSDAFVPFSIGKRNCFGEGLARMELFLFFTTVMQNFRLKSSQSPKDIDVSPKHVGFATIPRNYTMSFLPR
measurement.notes: Metabolism-dependent inhibition assay (IC50 shift) in pooled HLMs, CYP2A6
run.conditions: read-out: IC50, pre-incubation without NADPH, CYP2A6; pooled HLMs; 30 min pre-incubation without NADPH; substrate coumarin; 95% CI in parentheses
measurement.name: IC50 (µM)
Answer with a number only, understood to be in µM.

Problem: Please report the recorded IC50 for C=C(C)C1CC=C(C=O)CC1 (single isomer, unassigned; (-)) [(−)-PAH, (−)-Perillaldehyde] .
Solution: 8.25

---

subject.of.test: CYP2B6 (Homo sapiens)
Sequence (P20813 1-491): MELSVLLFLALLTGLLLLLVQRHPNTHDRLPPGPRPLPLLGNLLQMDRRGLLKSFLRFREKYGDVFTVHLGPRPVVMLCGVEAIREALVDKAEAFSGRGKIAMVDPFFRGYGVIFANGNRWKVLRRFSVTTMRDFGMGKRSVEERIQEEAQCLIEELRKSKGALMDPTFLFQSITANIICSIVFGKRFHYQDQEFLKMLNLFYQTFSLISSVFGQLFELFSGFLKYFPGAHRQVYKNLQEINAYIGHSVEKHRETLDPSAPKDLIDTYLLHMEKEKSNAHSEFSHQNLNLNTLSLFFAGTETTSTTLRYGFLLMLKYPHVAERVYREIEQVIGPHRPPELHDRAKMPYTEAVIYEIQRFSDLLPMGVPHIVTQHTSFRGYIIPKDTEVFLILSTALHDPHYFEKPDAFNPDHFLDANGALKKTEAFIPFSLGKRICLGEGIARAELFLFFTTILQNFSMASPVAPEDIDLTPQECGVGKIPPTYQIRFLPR
measurement.notes: Direct CYP inhibition assay in pooled HLMs, CYP2B6 (bupropion)
run.conditions: read-out: IC50 against CYP2B6; pooled HLMs 0.2 mg/mL; substrate bupropion 50 μM; 10 min; 95% CI in parentheses
Would you kindly list pIC50 for each of these compounds?
Remember, pIC50 is on a log scale: it is -log10 of the molar concentration.

Problem: Field: pIC50 (CYP2B6 (Homo sapiens)). Entry: C=C(C)C1CC=C(C=O)CC1 (single isomer, unassigned; (-)) [(−)-PAH, (−)-Perillaldehyde]
Solution: 5.21

Problem: Same for C=C(C)C1CC=C(C=O)CC1 (single isomer, unassigned; (+)) [(+)-PAH, (+)-perillaldehyde]
Solution: 4.54

---

subject.of.test: CYP2C9 (Homo sapiens, UniProt P11712)
Sequence (P11712 whole entry): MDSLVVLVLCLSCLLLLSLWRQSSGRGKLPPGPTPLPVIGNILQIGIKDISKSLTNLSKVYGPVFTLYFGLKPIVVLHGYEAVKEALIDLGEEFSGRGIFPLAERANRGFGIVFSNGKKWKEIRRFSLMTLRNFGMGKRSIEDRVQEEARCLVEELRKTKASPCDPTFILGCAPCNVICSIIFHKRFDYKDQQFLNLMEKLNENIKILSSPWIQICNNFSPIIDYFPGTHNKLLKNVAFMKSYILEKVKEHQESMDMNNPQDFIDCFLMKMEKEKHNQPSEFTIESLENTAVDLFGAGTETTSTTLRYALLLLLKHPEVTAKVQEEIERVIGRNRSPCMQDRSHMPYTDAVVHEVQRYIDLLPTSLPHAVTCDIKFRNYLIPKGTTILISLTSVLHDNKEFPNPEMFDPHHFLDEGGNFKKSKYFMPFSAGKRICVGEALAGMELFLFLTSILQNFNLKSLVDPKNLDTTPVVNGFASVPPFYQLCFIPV
measurement.notes: Effect of POH on fimasartan (FMS) metabolism in pooled HLMs: CYP2C9-mediated hydroxy butyl FMS formation
Type: in vitro ADME
run.conditions: human, pooled human liver microsomes, pH 7.4, pooled HLMs, FMS 30 μM, 95% CI in parentheses, read-out: IC50 against formation of 2- or 3-hydroxy butyl FMS
measurement.name: IC50 at 10 min (µM)
Answer with a number only, understood to be in µM.

Problem: Field: IC50 at 10 min (CYP2C9 (Homo sapiens, UniProt P11712)). Entry: C=C(C)[C@@H]1CC=C(CO)CC1 [(−)-POH, (−)-perillyl alcohol]
Solution: 62

---

subject.of.test: UniProt:P11509
measurement.notes: biochemical
measurement.name: pKi
Remember, pKi is on a log scale: it is -log10 of the molar concentration.

Problem: Please report the recorded pKi for C=C(C)[C@@H]1CC=C(CO)CC1 [(−)-POH, (−)-perillyl alcohol] .
Solution: 5.20

---

subject.of.test: CYP2B6 (Homo sapiens)
measurement.notes: Metabolism-dependent inhibition assay (IC50 shift) in pooled HLMs, CYP2B6
run.conditions: read-out: IC50, pre-incubation without NADPH, CYP2B6; pooled HLMs; 30 min pre-incubation without NADPH; substrate bupropion; 95% CI in parentheses
measurement.name: pIC50
Remember, pIC50 is on a log scale: it is -log10 of the molar concentration.

Problem: Please report the recorded pIC50 for C=C(C)C1CC=C(C=O)CC1 (single isomer, unassigned; (-)) [(−)-PAH, (−)-Perillaldehyde] .
Solution: 4.92

---

subject.of.test: CYP2B6 (Homo sapiens, UniProt P20813)
measurement.notes: biochemical
measurement.name: Ki (µM)
Answer with a number only, understood to be in µM.

Problem: Please report the recorded Ki for C=C(C)[C@@H]1CC=C(CO)CC1 [(−)-POH, (−)-perillyl alcohol] .
Solution: 3.78

---

subject.of.test: UniProtKB P11712
measurement.notes: Direct CYP inhibition assay in pooled HLMs, CYP2C9 (tolbutamide)
pIC50: −log10 of the molar value.
measurement.name: pIC50

Problem: Please report the recorded pIC50 for C=C(C)[C@@H]1CC=C(CO)CC1 [(−)-POH, (−)-perillyl alcohol] .
Solution: < 4.30

---

subject.of.test: CYP2A6 (Homo sapiens, UniProt P11509)
measurement.notes: Metabolism-dependent inhibition assay (IC50 shift) in pooled HLMs, CYP2A6
run.conditions: IC50, pre-incubation with NADPH, CYP2A6, pooled HLMs; 30 min pre-incubation with NADPH; substrate coumarin; 95% CI in parentheses
measurement.name: pIC50
Remember, pIC50 is on a log scale: it is -log10 of the molar concentration.

Problem: Please report the recorded pIC50 for C=C(C)[C@@H]1CC=C(CO)CC1 [(−)-POH, (−)-perillyl alcohol] .
Solution: 4.63

---

Would you kindly list IC50 for each of these compounds?
subject.of.test: CYP2A6 (Homo sapiens, UniProt P11509)
measurement.notes: Direct CYP inhibition assay in pooled HLMs, CYP2A6 (coumarin)
Assay type: in vitro ADME
run.conditions: pooled HLMs 0.2 mg/mL; substrate coumarin 5 μM; 10 min; 95% CI in parentheses; read-out: IC50 against CYP2A6
Answer with a number only, understood to be in µM.

Problem: Please report the recorded IC50 for N[C@@H]1C[C@H]1c1ccccc1 (racemic) [Tranylcypromine, reference compound] .
Solution: 0.5

Problem: Same for C=C(C)C1CC=C(C=O)CC1 (single isomer, unassigned; (+)) [(+)-PAH, (+)-perillaldehyde]
Solution: 10.6

Problem: Same for C=C(C)[C@@H]1CC=C(CO)CC1 [(−)-POH, (−)-perillyl alcohol]
Solution: 15.7

Problem: Same for C=C(C)C1CC=C(C=O)CC1 (single isomer, unassigned; (-)) [(−)-PAH, (−)-Perillaldehyde]
Solution: 3.64
